# Run description: chemical genetic growth profiling, strain panel (AID 1159580);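 further: tested at 20 µM; growth read once vehicle control cultures reached saturation at 30 °C; 1 = growth at the plate median or of vehicle wells; lower values mean less growth of the strain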
# Condition set: S. cerevisiae deletion strains, growth OD, locus YOL147C, strain pex11, active compounds read low
The campaign covered roughly 5,500 compounds. About 2,000 (36%) were called active. Not shown: some 18% with an inconclusive outcome. The list shows a part of the results.
Metric: normalized growth
Please give only the number in your answer, with no unit.

- Molecule: "NC(=NCCC[C@H](N)C(=O)O)N[N+](=O)[O-]"
  Metric: "normalized growth"
  Measured number: 1

Continue with the next molecule.
Q: GET /values?readout=normalized growth&item= CC1(C)C(=O)C=C[C@@]2(C)C1C[C@@H](O)[C@]1(C)C2CC[C@@]2(C)[C@H](c3ccoc3)OC(=O)[C@H]3O[C@]321 (some centres not stated)
Ans: 0.997

###

# Run description: chemical genetic growth profiling, strain panel (AID 1159580)
# Condition set: S. cerevisiae deletion strains, growth OD, locus YGL167C, strain pmr1, active compounds read low
Out of some 5,500 compounds screened, about 2,000 (36%) were called active. Roughly 18% stayed inconclusive and do not appear here. Some of the results follow.
normalized growth for assorted molecules
Please give only the number in your answer, with no unit.

Q: GET /values?readout=normalized growth&item= C[C@@H]1CC[C@@]2(OC1)OC1CC3C4CC=C5C[C@@H](O)CC[C@]5(C)C4CC[C@]3(C)C1[C@@H]2C (stereo partly drawn)
Ans: 0.994

Q: GET /values?readout=normalized growth&item= CNC(=O)Oc1cccc2c1OC(C)(C)O2
Ans: 1

Q: GET /values?readout=normalized growth&item= C=C[C@H]1CN2CC[C@H]1C[C@@H]2[C@@H](OC(=O)OCC)c1ccnc2ccc(OC)cc12
Ans: 0.962

Q: GET /values?readout=normalized growth&item= C=C1CCC2(OC1)OC1CC3C4CC=C5CC(O)CC(O)C5(C)C4CCC3(C)C1C2C (stereo not drawn)
Ans: 1.02

Q: GET /values?readout=normalized growth&item= CN[C@@H]1C(O)[C@@H](O[C@@H]2[C@@H](O)[C@H](O[C@H]3OC(CN)=CC[C@H]3N)[C@@H](N)C[C@H]2N)OC[C@]1(C)O (stereo partly drawn)
Ans: 1.02

Q: GET /values?readout=normalized growth&item= C[C@@H]1CC[C@@]2(OC1)O[C@H]1CC3C4CC[C@H]5C[C@@H](O)CC[C@]5(C)C4CC[C@]3(C)[C@H]1[C@@H]2C (stereo partly drawn)
Ans: 0.999

Q: GET /values?readout=normalized growth&item= CC1CC[C@@]2(OC1)O[C@H]1CC3C4CC[C@@H]5C[C@@H](O)CC[C@]5(C)C4CC[C@]3(C)[C@H]1[C@@H]2C (stereo partly drawn)
Ans: 1.02

Q: GET /values?readout=normalized growth&item= O=C(O)C1=C[C@@H](O)[C@@H](O)[C@H](O)C1
Ans: 0.977

###

normalized growth for assorted compounds
# Run description: chemical genetic growth profiling, strain panel (AID 1159580)
# Condition set: S. cerevisiae deletion strains, growth OD, locus YJL095W, strain BCK1 (second series), active compounds read low
In all, about 5,500 compounds went through this assay and about 2,000 (36%) were called active. Inconclusive results (about 18%) are left out. The list shows a part of the results.
Please give only the number in your answer, with no unit.

- Compound: "CCOCN(C(=O)CCl)c1c(C)cccc1CC"
  normalized growth: 0.996

Q: GET /values?readout=normalized growth&item= CC(C)(C)NCC(O)c1cc(O)cc(O)c1 (centres undefined)
Ans: 1

Q: GET /values?readout=normalized growth&item= COc1cc(OC)c2ccc(=O)oc2c1
Ans: 0.98

###

# Run description: chemical genetic growth profiling, strain panel (AID 1159580)
# Condition set: S. cerevisiae deletion strains, growth OD, locus YGR078C, strain PAC10
Hit rate of the full screen: of about 5,500 compounds, about 2,000 (36%) were called active. About 18% were inconclusive and are not listed. Rule as the data show it: active = normalized growth mostly below about 0.91 (no sharp cut-off); inconclusive = no clear call, values can overlap the other calls; inactive = mostly above about 0.92. The list shows a part of the results.
API: response.call in Y (active), N (inactive)

Past entries and their recorded results:
- Compound: "O=C(Nc1ccccc1)c1cc([N+](=O)[O-])ccc1Cl"
  Answer label: "N"
- Compound: "NS(=O)(=O)c1cc(C2(O)NC(=O)c3ccccc32)ccc1Cl (centres undefined)"
  Answer label: "N"

Q: Could you check what this test reported for COc1c2ccoc2cc2oc(=O)ccc12 ?
Ans: Y

Q: Could you check what this test reported for O=S(=O)(Oc1cc(Cl)cc(Cl)c1)c1cccc(S(=O)(=O)Oc2cc(Cl)cc(Cl)c2)c1 ?
Ans: N

Q: Could you check what this test reported for CCCC1O[C@@H]2C[C@H]3[C@@H]4CCC5=CC(=O)C=C[C@]5(C)[C@H]4[C@@H](O)C[C@]3(C)[C@]2(C(=O)CO)O1 (some centres undefined) ?
Ans: N

Q: Could you check what this test reported for C[C@@H]1O[C@@H](OC[C@H]2OC(Oc3c(-c4ccc(OCCO)c(OCCO)c4)oc4cc(OCCO)cc(O)c4c3=O)[C@H](O)[C@@H](O)[C@@H]2O)[C@H](O)[C@H](O)[C@H]1O (some centres undefined) ?
Ans: N

###

# Run description: chemical genetic growth profiling, strain panel (AID 1159580);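 further: tested at 20 µM; growth read once vehicle control cultures reached saturation at 30 °C; 1 = growth at the plate median or of vehicle wells; lower values mean less growth of the strain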
# Condition set: S. cerevisiae deletion strains, growth OD, locus YMR129W, active compounds read low
Out of some 5,500 compounds screened, about 2,000 (36%) were called active. About 18% were inconclusive and are not listed. The list shows a part of the results.
Metric: normalized growth
Please give only the number in your answer, with no unit.

- Compound: "O=C(O[C@@H]1Cc2c(O)cc(O)cc2O[C@@H]1c1cc(O)c(=O)c2c(O)c(O)cc([C@H]3Oc4cc(O)cc(O)c4C[C@H]3OC(=O)c3cc(O)c(O)c(O)c3)c2c1)c1cc(O)c(O)c(O)c1"
  normalized growth: 0.604
- Compound: "CC/C(=C(/CC)c1ccc(O)cc1)c1ccc(O)cc1"
  normalized growth: 1.02
- Compound: "CCC(c1ccc(O)cc1)C(CC)c1ccc(O)cc1 (stereo not given)"
  normalized growth: 0.957
- Compound: "CC(C)c1c(O)c(-c2cc3c(c(C(C)C)c2O)CCC2C(C)(C)CCC[C@]32C)cc2c1CCC1C(C)(C)CCC[C@]21C (stereo not given in full)"
  normalized growth: 0.98

Q: GET /values?readout=normalized growth&item= CCC(N)C(O)c1ccc(O)c(O)c1 (stereo not given)
Ans: 1

###

# Run description: chemical genetic growth profiling, strain panel (AID 1159580);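 further: tested at 20 µM; growth read once vehicle control cultures reached saturation at 30 °C; 1 = growth at the plate median or of vehicle wells; lower values mean less growth of the strain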
# Condition set: S. cerevisiae deletion strains, growth OD, locus YBR136W, strain MEC1, active compounds read low
About 2,000 (36%) of roughly 5,500 compounds were called active. Not shown: some 18% with an inconclusive outcome. Some of the results follow.
Metric: normalized growth
Please give only the number in your answer, with no unit.

- Molecule: "CC(C)(C)NC(=S)N/N=C\\c1ccccc1O"
  Metric: "normalized growth"
  Measured number: 0.958

Q: GET /values?readout=normalized growth&item= FC(F)(F)c1ccc(N2CCc3ccccc3C2)c(NC(=S)Nc2cc(Cl)cc(Cl)c2)c1
Ans: 0.997

Q: GET /values?readout=normalized growth&item= CC(C)(C)C(=O)NC(=S)N/N=C\c1cc(Cl)cc(Cl)c1O
Ans: 0.936

Q: GET /values?readout=normalized growth&item= Cc1nnc2n1N=C(c1ccc(CC(C)C)cc1)C(C)S2 (configuration not stated)
Ans: 0.975

Q: GET /values?readout=normalized growth&item= CC(NC(=S)N/N=C\c1ccccc1O)c1ccccc1 (configuration not stated)
Ans: 0.975

Q: GET /values?readout=normalized growth&item= O=C1Nc2ccccc2/C1=C/c1ccc(C(F)(F)F)cc1Cl
Ans: 0.982

Q: GET /values?readout=normalized growth&item= CCOC(=O)N/N=C\c1cc(Cl)cc(Cl)c1O
Ans: 0.951

Q: GET /values?readout=normalized growth&item= CCCCNC(=S)N/N=C\c1cc(Cl)cc(Cl)c1O
Ans: 0.924

Q: GET /values?readout=normalized growth&item= CN(C)C=Nc1nnc(Sc2nc3c(Cl)cc(Cl)cc3s2)s1
Ans: 0.968

Q: GET /values?readout=normalized growth&item= O=C1Nc2ccccc2/C1=C\c1cccc([N+](=O)[O-])c1
Ans: 0.972

Q: GET /values?readout=normalized growth&item= Cc1c(C)c(C)c(C(O)c2ccccc2)c(C)c1C (configuration not stated)
Ans: 1

Q: GET /values?readout=normalized growth&item= O=C1Nc2ccccc2/C1=C\c1ccc(Cl)cc1
Ans: 0.941

###

normalized growth for assorted compounds
# Run description: chemical genetic growth profiling, strain panel (AID 1159580);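 further: tested at 20 µM; growth read once vehicle control cultures reached saturation at 30 °C; 1 = growth at the plate median or of vehicle wells; lower values mean less growth of the strain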
# Condition set: S. cerevisiae deletion strains, growth OD, locus YOR270C, strain vph1, active compounds read low
Among all 5,500 compounds or so, about 2,000 (36%) were called active. About 18% were inconclusive and are not listed. The list shows a part of the results.
Please give only the number in your answer, with no unit.

Worked set:
- Compound: "CCOC(=O)c1c(C)cc(OC)cc1O"
  Metric: "normalized growth"
  Measured number: 0.727
- Compound: "Oc1cc2c(cc1O)C1c3ccc(O)c(O)c3OCC1(O)C2 (stereo not drawn)"
  Metric: "normalized growth"
  Measured number: 1.05
- Compound: "CCC(=O)c1c(O)cc(O)cc1O"
  Metric: "normalized growth"
  Measured number: 1.04
- Compound: "COC(=O)[C@@]1(C)CCC[C@]2(C)c3ccc(O)c(C(C)C)c3CCC12 (stereo partly drawn)"
  Metric: "normalized growth"
  Measured number: 0.612
- Compound: "CC1(C)O[C@H]2CC(=O)OC[C@]23[C@H]2CC[C@@]4(C)[C@H](c5ccoc5)OC(=O)[C@H]5O[C@]54[C@]2(C)C(=O)C[C@@H]13"
  Metric: "normalized growth"
  Measured number: 0.988

Q: GET /values?readout=normalized growth&item= CC/C(=C(/CC)c1ccc(O)cc1)c1ccc(O)cc1
Ans: 0.728

Q: GET /values?readout=normalized growth&item= Oc1ccc2c(c1)OCC1(O)Cc3cc(O)c(O)cc3C21 (stereo not drawn)
Ans: 1.16

Q: GET /values?readout=normalized growth&item= OC1CC2CCCC(C1)N2Cc1ccccc1 (stereo not drawn)
Ans: 0.99

Q: GET /values?readout=normalized growth&item= CC(C)c1c(O)ccc2c1CCC1[C@@](C)(CO)CCC[C@]21C (stereo partly drawn)
Ans: 1.01

Q: GET /values?readout=normalized growth&item= O=c1ccc2c(O)c3ccoc3cc2o1
Ans: 0.904

Each recorded value in this set is attributed to PubChem BioAssay AID1159580.
